target: UniProt:Q12884; assay: Inhibition of recombinant human FAP extracted from S2 cells using fluorogenic FAP as specific substrate measured after 10 mins incubation by 7-amino-4-methylcoumarin in assay
Sequence (Q12884 whole entry): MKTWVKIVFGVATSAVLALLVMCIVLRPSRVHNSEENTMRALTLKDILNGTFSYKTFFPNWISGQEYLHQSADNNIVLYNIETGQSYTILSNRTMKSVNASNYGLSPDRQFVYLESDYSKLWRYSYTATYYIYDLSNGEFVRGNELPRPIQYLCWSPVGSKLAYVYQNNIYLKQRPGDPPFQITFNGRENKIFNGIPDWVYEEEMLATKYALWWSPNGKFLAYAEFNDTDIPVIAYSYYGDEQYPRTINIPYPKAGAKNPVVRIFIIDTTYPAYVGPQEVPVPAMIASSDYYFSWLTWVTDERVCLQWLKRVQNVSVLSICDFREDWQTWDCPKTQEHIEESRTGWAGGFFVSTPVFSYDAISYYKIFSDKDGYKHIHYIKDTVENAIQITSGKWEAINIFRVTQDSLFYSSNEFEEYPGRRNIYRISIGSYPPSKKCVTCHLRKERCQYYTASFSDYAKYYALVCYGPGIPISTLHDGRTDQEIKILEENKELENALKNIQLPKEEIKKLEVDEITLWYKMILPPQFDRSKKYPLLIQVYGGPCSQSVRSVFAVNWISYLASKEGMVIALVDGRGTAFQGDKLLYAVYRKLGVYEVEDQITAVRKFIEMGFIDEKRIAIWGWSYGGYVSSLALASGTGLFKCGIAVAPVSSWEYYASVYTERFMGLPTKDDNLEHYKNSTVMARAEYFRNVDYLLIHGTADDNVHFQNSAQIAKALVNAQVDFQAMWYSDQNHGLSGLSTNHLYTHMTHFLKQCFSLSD
readout: IC50

• C[C@H](Cn1cnc2c(N)ncnc21)OCP(=O)(O)O [TENOFOVIR ANHYDROUS] = > 100 µM
• Nc1ncnc2c1ncn2CCOCP(=O)(O)O [ADEFOVIR] = > 100 µM
